# credit: patent US11938128B2

measurement.protocol: pharmacokinetics of BAI-A1 in the mouse
Assay type: in vivo
condition.set: plasma, other: injection (type of injection not given), 1 mg/kg, read-out: half-life in plasma (converted)
recorded.endpoint: half-life

The molecule OC(CN1CCNCC1)Cn1c2ccccc2c2ccccc21 (stereo not shown) showed half-life equal to ~3.5 h

====

study.system: BAX (Homo sapiens, UniProt Q07812)
Sequence (Q07812 whole entry): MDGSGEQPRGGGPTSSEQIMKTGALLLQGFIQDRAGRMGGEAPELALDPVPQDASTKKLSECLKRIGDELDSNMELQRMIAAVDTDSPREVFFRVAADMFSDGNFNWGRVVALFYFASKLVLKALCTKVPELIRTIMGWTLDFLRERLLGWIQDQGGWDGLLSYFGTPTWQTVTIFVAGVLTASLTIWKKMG
measurement.protocol: liposome release assay, tBID-induced BAX activation in liposomal membranes
Type: biochemical
condition.set: predicted from normalized inhibition values (5 and 10 μM, normalized to BAI1) correlated with measured IC50 values; read-out: Predicted IC50/μM
Can you tell me IC50 for the items I'm about to list?
Only the number, expressed in µM, is required.

// CN1CCN(CC(O)CN2c3ccccc3Sc3ccccc32)CC1 (centres unmarked) [BAI-A13] : IC50 value = 13.8

Short answer for OCCN(CCO)CC(O)CN1c2ccccc2Sc2ccccc21 (centres unmarked) [BAI-A14] : IC50 was 15.3

Noted for OCC(O)Cn1c2ccc(Br)cc2c2cc(Br)ccc21 (centres unmarked) [BAI-A10] : its IC50 reads 10.8

# compound OCCNCC(O)Cn1c2ccc(Br)cc2c2cc(Br)ccc21 (centres unmarked) [BAI-A12] ; its IC50 = 8.8

====

measurement.protocol: BAI-A22 pharmacokinetics in rats, non-compartmental analysis
Type: in vivo
condition.set: rat, plasma, iv; male Sprague Dawley rats, 1 mg/kg intravenously, NCA; unit is a drawing
recorded.endpoint: half-life (h)
Give the value, in units of h, as a plain number.

half-life in this record for OC(CN1CCNCC1)CN(c1ccccc1)c1ccc(Br)cc1 (stereo not shown) : 5.04

====

measurement.protocol: BAI-A22 pharmacokinetics in rats, non-compartmental analysis
Format: in vivo
condition.set: rat, plasma, iv; male Sprague Dawley rats, 1 mg/kg intravenously, NCA; parameter is a drawing; read-out: Vss: steady state volume of distribution
recorded.endpoint: Vd
Please provide the amount together with its unit, number first.

Measured Vd, OC(CN1CCNCC1)CN(c1ccccc1)c1ccc(Br)cc1 (stereo not shown) : 10.5 L/kg

====

measurement.protocol: pharmacokinetics of BAI-A1 in the mouse
Format: in vivo
condition.set: heart tissue, other: injection (type of injection not given), 1 mg/kg, read-out: half-life in heart tissue (converted)
recorded.endpoint: half-life

Looking up OC(CN1CCNCC1)Cn1c2ccccc2c2ccccc21 (stereo not shown) [BAI-A1] , I see its half-life listed as ~3.5 h

====

measurement.protocol: BAI-A22 pharmacokinetics in rats, non-compartmental analysis
Assay type: in vivo
condition.set: rat, plasma, iv; male Sprague Dawley rats, 1 mg/kg intravenously, NCA; parameter and unit are drawings; read-out: AUClast: area under the curve, calculated to the last observable time point
recorded.endpoint: AUC(0-t) (ng·h/mL)
All answers are understood in ng·h/mL, so give the number only.

According to the records, this compound OC(CN1CCNCC1)CN(c1ccccc1)c1ccc(Br)cc1 (stereo not shown) displays AUC(0-t) of 390

====

measurement.protocol: BAI-A22 pharmacokinetics in rats, non-compartmental analysis
Type: in vivo
condition.set: rat, plasma, iv; male Sprague Dawley rats, 1 mg/kg intravenously, NCA; unit is a drawing; read-out: C0: maximum plasma concentration extrapolated to t=0
recorded.endpoint: C0 (ng/mL)
Give the number; ng/mL is assumed, so skip it.

Please fill in: C0 reported for OC(CN1CCNCC1)CN(c1ccccc1)c1ccc(Br)cc1 (stereo not shown) = 318

====

measurement.protocol: plasma protein binding, rats
Assay type: in vitro ADME
condition.set: rat
recorded.endpoint: fraction unbound
Lab note: jot down the number only; don't add units.

fraction unbound in this record for OC(CN1CCNCC1)CN(c1ccccc1)c1ccc(Br)cc1 (stereo not shown) : 0.044

====

study.system: BAX (Homo sapiens, UniProt Q07812)
measurement.protocol: liposome release assay, tBID-induced BAX activation in liposomal membranes
Format: biochemical
condition.set: liposome release, minimum of 4 inhibitor concentrations around the IC50; read-out: Measured IC 50/μM
recorded.endpoint: IC50 (µM)
Lab book: enter the figure in µM, no units written.

Form: compound = Cc1ccc2c(c1)c1cc(C)ccc1n2CC(O)CN1CCNCC1 (stereo not shown) ; IC50 = 27

Sample CN1CCN(CC(O)CN2c3ccccc3Sc3ccccc32)CC1 (stereo not shown) ; IC50 observed: 13

The value of IC50 measured for the compound OC(CN1CCNCC1)Cn1c2ccc(F)cc2c2cc(F)ccc21 (stereo not shown) turned out to be 18

Note to self: IC50 recorded for OC(CN1CCNCC1)CN(c1ccc(Br)cc1)c1ccc(Br)cc1 (stereo not shown) was 4.5

GET /value?item= Cc1ccc(N(CC(O)CN2CCNCC2)c2ccc(C)cc2)cc1 (stereo not shown) &field=IC50 returns 26

The recorded IC50 for entry OC(CN1CCNCC1)Cn1c2ccc(C(F)(F)F)cc2c2cc(C(F)(F)F)ccc21 (stereo not shown) equals 15

Looking up OC(CN1CCNCC1)Cn1c2ccccc2c2ccccc21 (stereo not shown) , I found its IC50 recorded as 40

IC50 reported for this compound OC(CN1CCNCC1)CN(c1ccccc1)c1ccc(Br)cc1 (stereo not shown) : 11

get_value(item= OCCN1CCN(CCCN2c3ccccc3Sc3ccccc32)CC1 , readout=IC50) returns 6

====

study.system: BAX (Homo sapiens, UniProt Q07812)
measurement.protocol: liposome release assay, tBID-induced BAX activation in liposomal membranes
Format: biochemical
condition.set: predicted from normalized inhibition values (5 and 10 μM, normalized to BAI1) correlated with measured IC50 values; read-out: Predicted IC50/μM
Description: FIG. 8. BAI compounds tested in BAX inhibition assay using tBID-induced BAX activation in liposomal membranes. These compounds were hypothesized, but never shown, to work through BAX inhibition (19, 20). […] IC50 were predicted based on of “Normalized inhibition values” correlated with measured IC50 values.
Give measured IC50 for each item. Keep answers brief.
Value expressed in µM; do not type the unit.

What the record says about OCCN1CCN(CCCN2c3ccccc3Sc3ccccc32)CC1 : IC50 is 11.7

Entry OCCN(CCO)CC(O)Cn1c2ccc(Cl)cc2c2cc(Cl)ccc21 (stereo not drawn) , IC50 reported as 9.7

Entry under test: O=C(O)CCn1c2ccc(Br)cc2c2cc(Br)ccc21 . Its IC50 was 10.4

====

measurement.protocol: BAI-A22 pharmacokinetics in rats, non-compartmental analysis
Format: in vivo
condition.set: rat, plasma, iv; male Sprague Dawley rats, 1 mg/kg intravenously, NCA; unit is a drawing
recorded.endpoint: Cmax (ng/mL)
// return numeric value only (unit: ng/mL, not printed)

GET /value?item= OC(CN1CCNCC1)CN(c1ccccc1)c1ccc(Br)cc1 (stereo not shown) &field=Cmax returns 318
